# Tested on: RARa homodimer (NR concentration 270 nM)
# EXPERIMENT SUMMARY: PBM binding z-score (relative to random genomic background probes); higher = stronger binding; sequences stand for … in GC…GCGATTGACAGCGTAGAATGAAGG
Label Satisfied when PBM binding z-score is at or above 0.3; otherwise label Not satisfied.

>  <POLYMER SEQUENCE>
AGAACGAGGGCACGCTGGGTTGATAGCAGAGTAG

>  <CLASSIFICATION>
Satisfied

$$$$
>  <POLYMER SEQUENCE>
ATCTCTAGGTAAAGATAATTCAGTGAATGCAAAT

>  <CLASSIFICATION>
Satisfied

$$$$
>  <POLYMER SEQUENCE>
ATCGCTAGGTAAGACTCAGTTCAGTGAAGAACGC

>  <CLASSIFICATION>
Not satisfied

$$$$
>  <POLYMER SEQUENCE>
ACAGAAAGGTGAGTGAAGGTAACTCAGCTGGACG

>  <CLASSIFICATION>
Not satisfied

$$$$
>  <POLYMER SEQUENCE>
ATCACTAGGTAAAAGTTCAGTGAATCCCGAGGAT

>  <CLASSIFICATION>
Satisfied

$$$$
>  <POLYMER SEQUENCE>
ATCTCTAGGTAAGAGTTCAGTGAATCCCGAGGAT

>  <CLASSIFICATION>
Not satisfied

$$$$
>  <POLYMER SEQUENCE>
ATTTCTAGGTAACCAAGTTCAGTGAATGCCGAAC

>  <CLASSIFICATION>
Satisfied

$$$$
>  <POLYMER SEQUENCE>
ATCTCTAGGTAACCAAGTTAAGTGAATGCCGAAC

>  <CLASSIFICATION>
Satisfied

$$$$
>  <POLYMER SEQUENCE>
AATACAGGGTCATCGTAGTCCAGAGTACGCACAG

>  <CLASSIFICATION>
Satisfied

$$$$
>  <POLYMER SEQUENCE>
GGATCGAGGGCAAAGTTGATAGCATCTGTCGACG

>  <CLASSIFICATION>
Not satisfied

$$$$
>  <POLYMER SEQUENCE>
AATATTAGTTGACTTAGGGCAACCGATACGACGC

>  <CLASSIFICATION>
Satisfied

$$$$
>  <POLYMER SEQUENCE>
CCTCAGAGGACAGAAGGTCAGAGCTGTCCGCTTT

>  <CLASSIFICATION>
Not satisfied

$$$$

----------
# Test system: LXRb homodimer (NR concentration 270 nM)
# EXPERIMENT SUMMARY: PBM binding z-score (relative to random genomic background probes); higher = stronger binding; sequences stand for … in GC…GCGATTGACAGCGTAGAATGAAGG
Rule: Fulfilled for PBM binding z-score not less than -0.6, Not fulfilled for anything less.

>  <POLYMER SEQUENCE>
CGTCCAAGGTCAAAGGTCAGTGGAGAGATGACGG

>  <CLASSIFICATION>
Fulfilled

$$$$
>  <POLYMER SEQUENCE>
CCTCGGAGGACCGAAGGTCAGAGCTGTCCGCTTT

>  <CLASSIFICATION>
Not fulfilled

$$$$
>  <POLYMER SEQUENCE>
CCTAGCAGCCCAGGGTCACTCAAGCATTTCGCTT

>  <CLASSIFICATION>
Not fulfilled

$$$$
>  <POLYMER SEQUENCE>
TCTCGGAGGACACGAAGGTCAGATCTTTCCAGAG

>  <CLASSIFICATION>
Fulfilled

$$$$
>  <POLYMER SEQUENCE>
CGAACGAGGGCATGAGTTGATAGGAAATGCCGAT

>  <CLASSIFICATION>
Not fulfilled

$$$$
>  <POLYMER SEQUENCE>
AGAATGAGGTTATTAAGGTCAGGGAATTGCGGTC

>  <CLASSIFICATION>
Fulfilled

$$$$
>  <POLYMER SEQUENCE>
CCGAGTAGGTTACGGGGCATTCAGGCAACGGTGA

>  <CLASSIFICATION>
Not fulfilled

$$$$
>  <POLYMER SEQUENCE>
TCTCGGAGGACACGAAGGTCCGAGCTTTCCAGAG

>  <CLASSIFICATION>
Not fulfilled

$$$$
>  <POLYMER SEQUENCE>
TAGAGTAGGTTAGGGGCATTCAGAATGGCGTCGA

>  <CLASSIFICATION>
Fulfilled

$$$$
>  <POLYMER SEQUENCE>
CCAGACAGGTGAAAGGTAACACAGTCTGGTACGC

>  <CLASSIFICATION>
Fulfilled

$$$$
>  <POLYMER SEQUENCE>
GCTGCTAGGTCAACTGATGCTCAGCTAAAGCTCG

>  <CLASSIFICATION>
Fulfilled

$$$$
>  <POLYMER SEQUENCE>
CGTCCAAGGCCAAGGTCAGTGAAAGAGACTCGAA

>  <CLASSIFICATION>
Not fulfilled

$$$$
>  <POLYMER SEQUENCE>
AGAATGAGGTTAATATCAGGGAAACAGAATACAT

>  <CLASSIFICATION>
Fulfilled

$$$$
>  <POLYMER SEQUENCE>
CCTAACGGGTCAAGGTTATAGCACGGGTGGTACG

>  <CLASSIFICATION>
Fulfilled

$$$$
>  <POLYMER SEQUENCE>
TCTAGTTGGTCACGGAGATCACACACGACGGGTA

>  <CLASSIFICATION>
Fulfilled

$$$$
>  <POLYMER SEQUENCE>
CCGACTGGGGCATAAGGTGACCATAAGCCAGCCC

>  <CLASSIFICATION>
Not fulfilled

$$$$
>  <POLYMER SEQUENCE>
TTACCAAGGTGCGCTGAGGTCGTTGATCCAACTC

>  <CLASSIFICATION>
Fulfilled

$$$$
>  <POLYMER SEQUENCE>
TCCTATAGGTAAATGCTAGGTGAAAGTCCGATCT

>  <CLASSIFICATION>
Fulfilled

$$$$
>  <POLYMER SEQUENCE>
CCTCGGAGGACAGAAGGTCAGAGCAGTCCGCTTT

>  <CLASSIFICATION>
Not fulfilled

$$$$
>  <POLYMER SEQUENCE>
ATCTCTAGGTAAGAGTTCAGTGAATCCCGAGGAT

>  <CLASSIFICATION>
Fulfilled

$$$$
>  <POLYMER SEQUENCE>
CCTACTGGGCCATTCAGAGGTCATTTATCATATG

>  <CLASSIFICATION>
Fulfilled

$$$$
>  <POLYMER SEQUENCE>
TCTAGCTGGCCAGAGGGTCACTCAAGAGGTACGG

>  <CLASSIFICATION>
Not fulfilled

$$$$
>  <POLYMER SEQUENCE>
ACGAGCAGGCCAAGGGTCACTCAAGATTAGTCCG

>  <CLASSIFICATION>
Not fulfilled

$$$$
>  <POLYMER SEQUENCE>
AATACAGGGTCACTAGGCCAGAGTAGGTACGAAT

>  <CLASSIFICATION>
Fulfilled

$$$$
>  <POLYMER SEQUENCE>
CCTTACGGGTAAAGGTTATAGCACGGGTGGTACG

>  <CLASSIFICATION>
Fulfilled

$$$$
>  <POLYMER SEQUENCE>
CGTCCGAGGTCAGCAGGTCAGTGAAAGCGACGTG

>  <CLASSIFICATION>
Fulfilled

$$$$

----------
# Tested on: THRa:RXRa (NR concentration 90 nM, RXRa partner concentration 90 nM)
# EXPERIMENT SUMMARY: PBM binding z-score (relative to random genomic background probes); higher = stronger binding; sequences stand for … in GC…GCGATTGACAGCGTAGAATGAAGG
Consider the following sequences and their measured PBM binding z-score readings.
OUTCOME MEASURE: PBM binding z-score

>  <POLYMER SEQUENCE>
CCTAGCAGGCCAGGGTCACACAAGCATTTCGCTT

>  <OUTCOME MEASURE>
PBM binding z-score

>  <ASSAY VALUE>
3.45

$$$$
>  <POLYMER SEQUENCE>
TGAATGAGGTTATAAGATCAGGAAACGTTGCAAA

>  <OUTCOME MEASURE>
PBM binding z-score

>  <ASSAY VALUE>
1.77

$$$$
>  <POLYMER SEQUENCE>
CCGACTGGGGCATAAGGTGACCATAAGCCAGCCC

>  <OUTCOME MEASURE>
PBM binding z-score

>  <ASSAY VALUE>
1.7

$$$$
>  <POLYMER SEQUENCE>
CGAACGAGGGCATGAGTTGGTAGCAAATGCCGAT

>  <OUTCOME MEASURE>
PBM binding z-score

>  <ASSAY VALUE>
1.03

$$$$
>  <POLYMER SEQUENCE>
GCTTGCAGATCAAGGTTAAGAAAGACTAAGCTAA

>  <OUTCOME MEASURE>
PBM binding z-score

>  <ASSAY VALUE>
1.16

$$$$
>  <POLYMER SEQUENCE>
CGAATTAGGTCATCCAGGACAGTGAATACATTGA

>  <OUTCOME MEASURE>
PBM binding z-score

>  <ASSAY VALUE>
4.01

$$$$
>  <POLYMER SEQUENCE>
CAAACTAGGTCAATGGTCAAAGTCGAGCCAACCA

>  <OUTCOME MEASURE>
PBM binding z-score

>  <ASSAY VALUE>
2.56

$$$$
>  <POLYMER SEQUENCE>
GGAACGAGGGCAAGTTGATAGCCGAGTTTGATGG

>  <OUTCOME MEASURE>
PBM binding z-score

>  <ASSAY VALUE>
1.22

$$$$
>  <POLYMER SEQUENCE>
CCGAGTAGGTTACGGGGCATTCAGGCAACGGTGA

>  <OUTCOME MEASURE>
PBM binding z-score

>  <ASSAY VALUE>
0.851

$$$$
>  <POLYMER SEQUENCE>
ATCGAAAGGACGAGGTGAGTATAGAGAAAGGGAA

>  <OUTCOME MEASURE>
PBM binding z-score

>  <ASSAY VALUE>
1.27

$$$$
>  <POLYMER SEQUENCE>
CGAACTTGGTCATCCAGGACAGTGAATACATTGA

>  <OUTCOME MEASURE>
PBM binding z-score

>  <ASSAY VALUE>
1.91

$$$$
>  <POLYMER SEQUENCE>
CGAACTAGGTCATCCTGGACAGTGAATACATTGA

>  <OUTCOME MEASURE>
PBM binding z-score

>  <ASSAY VALUE>
2.89

$$$$
